All values here come from ChEMBL document CHEMBL3232844.

Provide the reported TGI of each item.
test system: A549; assay: Cytotoxicity against human A549 cells; assay type: functional; details: read-out: pTGI (converted)

Look at this compound and give its reported TGI. "COc1cc(/C=C/c2cc(O)c3cc(CC=C(C)C)[nH]c3c2)cc2c1O[C@]1(C)CC[C@@H](O)C(C)(C)[C@H]1C2"
> 100 µM

Look at this compound and give its reported TGI. "COc1cc(/C=C/c2cc(OC)c3ccn(C)c3c2)cc2c1O[C@]1(C)CC[C@@H](O)C(C)(C)[C@H]1C2"
> 100 µM

Look at this compound and give its reported TGI. "COc1cc(/C=C/c2cc(O)c3c(C/C=C(\C)CCC=C(C)C)c[nH]c3c2)cc2c1O[C@]1(C)CC[C@@H](O)C(C)(C)[C@H]1C2"
> 100 µM

----------
assay: Cytotoxicity against human OVCAR4 cells; assay type: functional; details: OVCAR-4, read-out: pTGI (converted)
Provide the reported TGI of each item.

Look at this molecule and give its reported TGI. "COc1cc(/C=C/c2cc(O)c3cc(CC=C(C)C)[nH]c3c2)cc2c1O[C@]1(C)CC[C@@H](O)C(C)(C)[C@H]1C2"
> 100 µM

Look at this molecule and give its reported TGI. "COc1cc(/C=C/c2cc(O)c3c(C/C=C(\C)CCC=C(C)C)c[nH]c3c2)cc2c1O[C@]1(C)CC[C@@H](O)C(C)(C)[C@H]1C2"
> 100 µM

Look at this molecule and give its reported TGI. "COc1cc(/C=C/c2cc(O)c3ccn(C)c3c2)cc2c1O[C@]1(C)CC[C@@H](O)C(C)(C)[C@H]1C2"
> 100 µM

----------
system: SR; assay: Cytotoxicity against human SR cells; format: functional; details: read-out: pTGI (converted)
Recorded Endpoint: TGI (µM)
Report the value in µM with no unit label.

Look at this compound and give its reported TGI. "COc1cc(/C=C/c2cc(O)c3c(CC=C(C)C)c[nH]c3c2)cc2c1O[C@]1(C)CC[C@@H](O)C(C)(C)[C@H]1C2"
50.1

Look at this compound and give its reported TGI. "COc1cc(/C=C/c2cc(OC)c3c(CC=C(C)C)c[nH]c3c2)cc2c1O[C@]1(C)CC[C@@H](O)C(C)(C)[C@H]1C2"
5.5

Look at this compound and give its reported TGI. "CC1(C)[C@H](O)CC[C@@]2(C)Oc3c(O)cc(/C=C/c4cc(O)c5cc[nH]c5c4)cc3C[C@H]12"
21.4

----------
tested on: IGROV-1; assay: Cytotoxicity against human IGROV1 cells; assay type: functional; details: read-out: pLC50 (the source's name) (converted)
Recorded Endpoint: CC50 (µM)
Report the value in µM with no unit label.

Look at this compound and give its reported CC50. "COc1cc(/C=C/c2cc(O)c3c(c2)C[C@@H]2C(C)(C)[C@H](O)CC[C@@]2(C)O3)cc2[nH]cc(CC=C(C)C)c12"
89.1

Look at this compound and give its reported CC50. "COc1cc(/C=C/c2cc(O)c3c(c2)C[C@@H]2C(C)(C)[C@H](O)CC[C@@]2(C)O3)cc2c1ccn2C"
89.1

Look at this compound and give its reported CC50. "COc1cc(/C=C/c2cc(OC)c3c(C/C=C(\C)CCC=C(C)C)c[nH]c3c2)cc2c1O[C@]1(C)CC[C@@H](O)C(C)(C)[C@H]1C2"
91.2

----------
assay: Cytotoxicity against human UO31 cells; type: functional; details: UO-31
Recorded Endpoint: LC50

Look at this compound and give its reported LC50. "COc1cc(/C=C/c2cc(O)c3cc(CC=C(C)C)[nH]c3c2)cc2c1O[C@]1(C)CC[C@@H](O)C(C)(C)[C@H]1C2"
> 100 µM

Look at this compound and give its reported LC50. "CC1(C)[C@H](O)CC[C@@]2(C)Oc3c(O)cc(/C=C/c4cc(O)c5cc[nH]c5c4)cc3C[C@H]12"
> 100 µM

Look at this compound and give its reported LC50. "COc1cc(/C=C/c2cc(O)c3cc[nH]c3c2)cc2c1O[C@]1(C)CC[C@@H](O)C(C)(C)[C@H]1C2"
> 100 µM

----------
Provide the reported TGI of each item.
system: SR; test: Cytotoxicity against human SR cells; format: functional; details: read-out: pTGI (converted)

Look at this compound and give its reported TGI. "COc1cc(/C=C/c2cc(O)c3cc(CC=C(C)C)[nH]c3c2)cc2c1O[C@]1(C)CC[C@@H](O)C(C)(C)[C@H]1C2"
> 100 µM

Look at this compound and give its reported TGI. "COc1cc(/C=C/c2cc(OC)c3ccn(C)c3c2)cc2c1O[C@]1(C)CC[C@@H](O)C(C)(C)[C@H]1C2"
> 100 µM

Look at this compound and give its reported TGI. "COc1cc(/C=C/c2cc(O)c3ccn(C)c3c2)cc2c1O[C@]1(C)CC[C@@H](O)C(C)(C)[C@H]1C2"
> 100 µM
